- Tested on: Kidney
- Experiment description: Drug uptake in overnight fasted Sprague-Dawley rat kidney at 0.7 to 1.4 MBq, iv at 30 mins
- Type: ADME, organism-based
- Recorded conditions: in vivo, 0.5 h
Would you kindly list Drug uptake for each of these molecules?
Phrase the answer as number then unit, nothing more needed.

Identify measured Drug uptake associated with "O=C(O)CCSCCCCCCCCCCCCCC[18F]"
0.1872 %IDKg/g

Tell me measured Drug uptake for "O=C(O)CCSCCCCCCCCCCCC[18F]" please.
0.209 %IDKg/g

Give the measured Drug uptake for "O=C(O)CCCCSCCCCCCCCCCCC[18F]"
0.2095 %IDKg/g

Give me measured Drug uptake, please, for this molecule: "O=C(O)CCSCCCC/C=C\CCCCCCCC[18F]"
0.2035 %IDKg/g

---

- System: Liver
- Experiment description: Drug uptake in overnight fasted Sprague-Dawley rat liver at 0.7 to 1.4 MBq, iv preincubated with POCA for 2 hrs before compound administration measured at 120 mins post treatment
- Format: ADME, organism-based
- Recorded conditions: in vivo
Recorded metric: Drug uptake (%IDKg/g)
Give the value, in units of %IDKg/g, as a plain number.

Let me know recorded Drug uptake for "O=C(O)CCSCCCCCCCCCCCC[18F]" , thanks.
0.4433

Supply reported Drug uptake belonging to this molecule: "O=C(O)CCSCCCC/C=C\CCCCCCCC[18F]"
0.1666

Indicate its recorded Drug uptake; the molecule in question is "O=C(O)CCSCCCCCCCCCCCCCC[18F]"
0.1341

Report measured Drug uptake; entry is "O=C(O)CCCCSCCCCCCCCCCCC[18F]"
0.419

---

- Tested on: Bone
- Experiment description: Drug uptake in overnight fasted Sprague-Dawley rat bone at 0.7 to 1.4 MBq, iv preincubated with POCA for 2 hrs before compound administration measured at 30 mins post treatment
- Format: ADME, organism-based, Bone element
- Recorded conditions: in vivo, 0.5 h
Recorded metric: Drug uptake (%IDKg/g)
The figure you give is taken to be in %IDKg/g; do not add the unit.

Provide one value: measured Drug uptake of "O=C(O)CCSCCCCCCCCCCCC[18F]"
0.179

Note down Drug uptake recorded for "O=C(O)CCCCSCCCCCCCCCCCC[18F]"
0.1037

Give a short answer stating reported Drug uptake for "O=C(O)CCSCCCC/C=C\CCCCCCCC[18F]" .
0.1475

State its Drug uptake: "O=C(O)CCSCCCCCCCCCCCCCC[18F]"
0.2289

---

- System: Muscle tissue
- Experiment description: Biodistribution in overnight fasted Sprague-Dawley rat muscle pellet fraction at 0.7 to 1.4 MBq, iv preincubated with POCA for 2 hrs before compound administration measured at 120 mins post treatment by Folch-type extraction method
- Type: ADME, organism-based
- Recorded conditions: in vivo
For each entry below, report its Drug uptake value.
# number only, unit % dropped from output

Read the entry "O=C(O)CCCCSCCCCCCCCCCCC[18F]" and write its reported Drug uptake.
31.41

State its Drug uptake: "O=C(O)CCSCCCCCCCCCCCCCC[18F]"
32.62

Give the value of Drug uptake reported for the following: "O=C(O)CCSCCCCCCCCCCCC[18F]"
32.69

Please report Drug uptake for the following compound: "O=C(O)CCSCCCC/C=C\CCCCCCCC[18F]"
35.36

---

Please go through the items and note down their Drug uptake.
- Test system: Muscle tissue
- Experiment description: Biodistribution in overnight fasted Sprague-Dawley rat muscle aqueous fraction at 0.7 to 1.4 MBq, iv preincubated with POCA for 2 hrs before compound administration measured at 120 mins post treatment by Folch-type extraction method
- Assay type: ADME, organism-based
- Recorded conditions: in vivo
Write it as a number; the unit % goes unstated.

Give the reported Drug uptake for this molecule. "O=C(O)CCSCCCC/C=C\CCCCCCCC[18F]"
11.37

Consider the molecule "O=C(O)CCSCCCCCCCCCCCC[18F]" and give its recorded Drug uptake.
19.16

Input "O=C(O)CCCCSCCCCCCCCCCCC[18F]" , output reported Drug uptake.
9.3

Please supply the value of reported Drug uptake for the item "O=C(O)CCSCCCCCCCCCCCCCC[18F]"
9.12
